intrinsic clearance, rat liver microsomes for assorted compounds
property-label: intrinsic clearance, rat liver microsomes

>>> measured_result("CC(C)c1nc2c(n1C)CCN(c1ncnc3ccsc13)C2")
"567 mL/min/kg"
>>> measured_result("Cc1nc2ccccc2n1Cc1ccc(C(=O)O)cc1")
"≤ 10.7 mL/min/kg"
>>> measured_result("Cc1cc(C(F)(F)F)nc(CCNC(=O)N(C)Cc2ccncc2C)n1")
"734 mL/min/kg"
>>> measured_result("CCCN(CCC1=CCCCC1)C(=O)c1cc(C(F)F)n[nH]1")
"1990 mL/min/kg"
>>> measured_result("O=C(NCc1cccc(O)c1)Nc1ccccc1F")
"58.9 mL/min/kg"
>>> measured_result("COCC(=O)Nc1ccc(C)c(NC(=O)[C@H](OC)c2ccccc2)c1")
"44.9 mL/min/kg"

###

intrinsic clearance, rat liver microsomes for assorted compounds
property-label: intrinsic clearance, rat liver microsomes (mL/min/kg)

>>> measured_result("CCc1ccc(-c2nccn2Cc2c(C)nn(CC)c2C)o1")
3020
>>> measured_result("O=C(NCc1ccc(CO)c(F)c1)Nc1ccccc1")
20.8
>>> measured_result("CC(=O)N1CCCN(C(=O)Cc2csc(C(C)C)n2)CC1")
33.4
>>> measured_result("COc1ccccc1-c1cc(C(C)(C)C)nc(-c2ncccn2)n1")
169
>>> measured_result("Cc1nc(CN(C)C(=O)C2c3ccccc3-c3ccccc32)no1")
430
>>> measured_result("CCCN(CCC1=CCCCC1)C(=O)Cc1n[nH]c(=O)[nH]1")
1270
>>> measured_result("Clc1ccc(COc2cccc(N3CCNCC3)c2)cc1")
320
>>> measured_result("O=C(Nc1nnc(SCc2ccc(F)cc2)s1)C1CCC1")
1650
>>> measured_result("Cc1cc(Nc2ccc(F)cn2)cc(C2CCN(C(=O)COc3ccccc3F)C2)n1 (configuration not stated)")
507

###

property-label: intrinsic clearance, human liver microsomes (mL/min/kg)

>>> measured_result("Cc1ccc(S(=O)(=O)N2CCC(c3nnc(-c4cccnc4)o3)C2)cc1 (stereo unspecified)")
41.7
>>> measured_result("Fc1ccc(F)c2c(NCc3ccc(N4CCOCC4)nc3)ccnc12")
40.6
>>> measured_result("CC1(C)OCCn2c1nc1c(N3CCOCC3)nc(-c3cnc(N)nc3)nc12")
6.14
>>> measured_result("Cc1ccc2c(c1)C(=O)CC1(CCN(C(=O)c3ccc4nc(C)cc(O)c4c3)CC1)O2")
18.4
>>> measured_result("CCC1=C(C)CN(C(=O)NCCc2ccc(S(=O)(=O)NC(=O)N[C@H]3CC[C@H](C)CC3)cc2)C1=O")
19.2
>>> measured_result("COc1ccc(Cl)cc1N(CC(=O)Nc1ccccc1C(=O)NCc1ccccc1)S(C)(=O)=O")
594
>>> measured_result("O=C(c1cnc(-c2ccccc2)s1)N1CCOC2(CCCC2)C1")
21.4
>>> measured_result("CN(c1nc2ccccc2o1)C1CCN(C2CCOCC2)CC1")
438

###

intrinsic clearance, rat liver microsomes for assorted molecules
property-label: intrinsic clearance, rat liver microsomes (mL/min/kg)

>>> measured_result("CN(C)c1ccc2c(c1)Sc1cc(N(C)C)ccc1N2")
153
>>> measured_result("COc1ccc2nc(C)nc(N3CC(CO)C3)c2c1")
13.6
>>> measured_result("CCN(CC)C(=O)CSCc1cncc(F)c1")
835
>>> measured_result("O=C(c1cc(F)ccc1O)N1CCN(C2CCOCC2)CC1")
201
>>> measured_result("O=C(c1ccc(F)cc1)N1CCN(CC(=O)N2CCCC2=O)CC1")
14.1
>>> measured_result("O=C(NC1(c2ccccc2)CCC1)c1cc(C2CC2)on1")
192
